System: Bacteroides caccae
Test: growth AUC relative to DMSO control (median of replicates) (fraction); higher = more growth (less inhibition), active = hit call of the paper
Details: 20 µM; 24 h
Each entry below carries its recorded growth AUC.
Give a plain numeric answer without units written out.

Known growth AUC results, listed for orientation:
[[record]]
compound = "N#Cc1ccccc1NC(=O)c1snc(Cl)c1Cl"
parameter = "growth AUC"
numeric_result = 0.956

[[record]]
compound = "CCNc1nc(Cl)nc(N(CC)CC)n1"
parameter = "growth AUC"
numeric_result = 0.995

[[record]]
compound = "CCOc1nc(F)cc2nc(S(=O)(=O)Nc3c(Cl)cccc3C(=O)OC)nn12"
parameter = "growth AUC"
numeric_result = 0.999


I'd like to know its growth AUC. The compound in question is `O=C(O)c1ccc(Cl)cc1Cl` 1.03

Item CCC(C)c1cc([N+](=O)[O-])cc([N+](=O)[O-])c1OC(=O)OC(C)C (stereo not given) has what recorded growth AUC? 0.909

Which measured growth AUC value corresponds to COC(=O)c1ccccc1S(=O)(=O)NC(=O)n1nc(OCC(C)O)n(C)c1=O (stereo not given) ? 1

Fill blank: measured growth AUC of the compound `O=[N+]([O-])c1ccc2c(c1)Cc1ccccc1-2` is ____. 0.995
